Value source: PubChem BioAssay (NCI)

Entries and their TGI values follow.
# Test system: NCI-H226 lung
# test.summary: NCI tumour cell line growth inhibition, 48 h

# compound, TGI
records = [
    ("CCCCNC(=O)Oc1ccc(/C(=C(/CC)Cc2ccccc2)c2ccc(OCCN3CCCCCC3)cc2)cc1", "> 100 µM"),
    ("COC(=O)[C@]1(C)C(OC)=CC(=O)C2C1[C@H]1CCC[C@@H]21 (stereo partly drawn)", "> 100 µM"),
    ("COc1ccc2ccccc2c1CN1CCOCCOCCN(Cc2c(OC)ccc3ccccc23)CCOCCOCC1", "> 100 µM"),
]

----------
# Tested on: COLO 205 colon
# test.summary: NCI tumour cell line growth inhibition, 48 h
A collection of compounds and their measured TGI
endpoint: TGI

# smiles, endpoint, result
records = [
    ("Cc1ccc(/C=N\\NC(=O)c2ccncc2)s1", "TGI", "> 100 µM"),
    ("CN1c2ccccc2S(=O)(=O)n2c(CCc3ccccc3)nnc21", "TGI", "> 100 µM"),
    ("CCn1c(=O)c2c3ccc(OC(C)=O)cc3[nH]c2c2ccc(OC(C)=O)cc21", "TGI", "> 100 µM"),
]
